# Tested on: HL-60;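 further: growth inhibition of human HL-60 cells, read out with a cell viability assay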
# assay.protocol: cells
# Format: functional, cell-based
# experimental.parameters: Homo sapiens
# Description: SANGER: Inhibition of human HL-60 cell growth in a cell viability assay.
Reported IC50 values for the following molecules.
outcome.measure: IC50

[
  {
    "molecule": "O=c1[nH]c2ccccc2n1C1CCN(Cc2ccc(-c3nc4cc5[nH]cnc5cc4nc3-c3ccccc3)cc2)CC1",
    "outcome.measure": "IC50",
    "measured.value": "> 2560 nM"
  },
  {
    "molecule": "N#C/C(=C1/Nc2ccccc2S1)c1ccnc(NCCc2cccnc2)n1",
    "outcome.measure": "IC50",
    "measured.value": "> 8000 nM"
  },
  {
    "molecule": "CC[C@]1(O)C[C@@H]2CN(CCc3c([nH]c4ccccc34)[C@@](C(=O)OC)(c3cc4c(cc3OC)N(C)[C@H]3[C@@](O)(C(=O)OC)[C@H](OC(C)=O)[C@]5(CC)C=CCN6CC[C@]43[C@@H]65)C2)C1 [VINBLASTINE]",
    "outcome.measure": "IC50",
    "measured.value": "4.37 nM"
  }
]

Source listed as ChEMBL document CHEMBL1201861.
